# assay explanation: Determination of bioavailability (blood levels, ex-vivo bioassay)
# Format: in vivo
# conditions used: mouse, blood, po, 50 mg/kg, mice, 50 mg/kg p.o., 40′; read-out: blood level, P.o. method, 40′
assay readout: concentration at 40 min (ng/mL)
Express it in ng/mL; write the number only.

// query Please report the recorded concentration at 40 min for CNC(=O)C(Cc1ccc(Cl)c(Cl)c1)NC(=O)[C@](O)(CC(C)C)[C@H](C)C(=O)NO (some centres unmarked) .
// result 600

====

# assay explanation: Determination of bioavailability (blood levels, ex-vivo bioassay)
# Type: in vivo
# conditions used: mouse, blood, ip, 50 mg/kg, mice, 50 mg/kg i.p., 10′; read-out: blood level, I.p. method, 10′
assay readout: concentration at 10 min (ng/mL)

| molecule | unit of measure | test result |
| --- | --- | --- |
| CNC(=O)[C@H](Cc1ccc(OC)cc1)NC(=O)[C@H](CC(C)C)[C@H](C)C(=O)NO [drawing 113] | ng/mL | 200 |

1: CNC(=O)[C@H](Cc1ccc(OC)cc1)NC(=O)[C@](O)(CC(C)C)[C@H](C)C(=O)NO [drawing 114]
2: CC(C)C[C@@](O)(C(=O)N[C@@H](Cc1ccc(Cl)c(Cl)c1)C(=O)NCCOCCO)[C@H](C)C(=O)NO [drawing 120]
3: CNC(=O)[C@@H](NC(=O)C(O)(CC(C)C)[C@H](C)C(=O)NO)C(C)(C)C (stereo partly drawn)
// query Order field: concentration at 10 min | Direction: descending (largest first) Give your ranking as a list of the labels in the requested order.
// result 3, 1, 2
(3: 56000 ng/mL, 1: 23000 ng/mL, 2: 4500 ng/mL)

====

# assay explanation: Determination of bioavailability (blood levels, ex-vivo bioassay)
# Format: in vivo
# conditions used: mice, 50 mg/kg i.p., 10′
assay readout: blood level, I.p. method, 10′ (ng/mL)

| compound | blood level, I.p. method, 10′ / ng/mL |
| --- | --- |
| CC(C)C[C@@](O)(C(=O)N[C@@H](Cc1ccc(Cl)c(Cl)c1)C(=O)NCCN1CCOCC1)[C@H](C)C(=O)NO [drawing 118] | 700 |

P: CC(C)C[C@@](O)(C(=O)N[C@@H](Cc1ccc(Cl)c(Cl)c1)C(=O)NCCN1CCOCC1)[C@H](C)C(=O)NO [drawing 119]
Q: CC(C)C[C@@](O)(C(=O)N[C@@H](Cc1ccc(Cl)cc1)C(=O)NCCN1CCOCC1)[C@H](C)C(=O)NO [drawing 115]
R: CC(C)C[C@@](O)(C(=O)N[C@@H](Cc1ccc(Cl)cc1)C(=O)NCCN1CCOCC1)[C@H](C)C(=O)NO [drawing 116]
// query Please order the records by their reported blood level, I.p. method, 10′, lowest number first. Give your ranking as a list of the labels in the requested order.
// result P, Q, R

====

# assay explanation: Determination of bioavailability (blood levels, ex-vivo bioassay)
# Type: in vivo
# conditions used: mouse, blood, ip, 50 mg/kg, mice, 50 mg/kg i.p., 40′; read-out: blood level, I.p. method, 40′
assay readout: concentration at 40 min (ng/mL)

| compound | concentration at 40 min (ng/mL) |
| --- | --- |
| CC(C)C[C@@](O)(C(=O)N[C@@H](Cc1ccc(Cl)c(Cl)c1)C(=O)NCCOCCO)[C@H](C)C(=O)NO [drawing 120] | 4400 |

a: CNC(=O)[C@H](Cc1ccc(OC)cc1)NC(=O)C(O)(CC(C)C)[C@H](O)C(=O)NO (some centres unmarked)
b: CNC(=O)[C@@H](NC(=O)[C@H](CC(C)C)[C@H](O)C(=O)NO)C(C)C
c: CC(C)C[C@@](O)(C(=O)N[C@@H](Cc1ccc(Cl)cc1)C(=O)NCCN1CCOCC1)[C@H](C)C(=O)NO [drawing 115]
// query Please order the records by their reported concentration at 40 min, lowest number first. Give your ranking as a list of the labels in the requested order.
// result a, c, b
